Experiment: folding stability dG unfold (combined trypsin and chymotrypsin); higher = more stable
Reported Property: folding stability dG unfold

# Residue Codes, folding stability dG unfold
data = [
    ("SAGGSAGGSAGGPERLVLASFIPGPRLLHVVEVSLDGVGASISPSVFSIHPDRPDEIEPVSAGGSAGGSAGG [r7_866_TrMRF]", "< -1 kcal/mol"),
    ("MKIVIDKDGNIRIEIIDKDGKKITLTLPVKTLEEALQKIKDLIRELFPDAKDLKVKVVEVKDGYVVIEVEPS [r1_389_TrROS_Hall]", "> 6 kcal/mol"),
    ("SAGGSAGGSAGEWVTIPIKNPEKLKDLPGLPIKDVEPNGGKPTITFNGDDPERIKEALNDSAGGSAGGSAGG [r11_65_TrROS]", "0.682 kcal/mol"),
]

Give the value of folding stability dG unfold reported for the following: SAGGSAGGKKNNKPKPILVKIEIINKNGKKKVFTKEFKSLEEAKKFIEKALPKGYSAKIEIIPGSAGGSAGG [r6_289_TrMRF]
3.18 kcal/mol

Give the value of folding stability dG unfold reported for the following: SAGGSMVVTVSTDSTSEPTTVITITIPPELGNLTDEEKKAIAEEIAKKYPNTKFTFTPTTITITRKSAGGSA [r2_256_JUSTAS]
2.37 kcal/mol

Give the value of folding stability dG unfold reported for the following: SAGGGSMSESLSLVEEEIKVGETVVKVKRLIYPVSGTALVEITKPGGGPIGVFNTTISPSTGGVELLSAGGS [r16_798_JUSTAS]
< -1 kcal/mol

Give the value of folding stability dG unfold reported for the following: SAGGSAGGSAGGMTITIKVPPNMTEEQLRELARELARKLGLEDVEVRIERREDGTVRITFSAGGSAGGSAGG [r7_810_TrROS_Hall]
4.85 kcal/mol

Give the value of folding stability dG unfold reported for the following: SAKKHIPIPMDDPENLKKAIEEALENAENGKKVEIPIRSPDGPVWIEVDPKKKDIKIRNPGNGEERKIKSAG [r14_423_TrROS]
-0.0974 kcal/mol
